All figures here come from the nanobody polyreactivity screen of Harvey et al. (2022).

Test: yeast display, Sf9 membrane polyspecificity reagent, FACS + sequencing; frameworks hold sequencing errors
measuredParameter: polyreactivity (PSR sort gate)

Worked examples, 8 sequences total:
>>> result("QVQLEDSGGGLVQAGRSLLLSFAASGNTFWLNAKGRYRQAPGKERELVAAITYTDGSTYADSVKGRFTISRDNAKITVYLQMNSLKPEDSAVYYCAARYQWDWRDYYYWGQGTQVTVSS")
"low polyreactivity"
>>> result("QVQLVESGGGLVQAGGSLRLSCAASGRTFHVYAMGWYRQAPGKERELVATITDGSTNYADSVKGRFTISRDNAKNTVYLQMNRLKPEDNAVYYCATVRDWIPSGDYEYWGQCTQVTVSS")
"low polyreactivity"
>>> result("QVQLVESRGGLVQAGGSLRLSCAASGRIFRYYAMGWYRQAPGKERELVAAITWRGGNTRYADSVKGRFTISRDNAKNTVYLPMNSLKTEDTAVYYCAARGQSAYSIWSYYYWGQGTQVTVSS")
"high polyreactivity"
>>> result("QVQLVESGGGLVQAGGSLRLSCAASGRTFQDNAMVWYRQAPGKEREFVAAINNSGGNTYYADSVKGRFTISRDNAKNTVYLQMNSLKPEDTAVYYCNARHTWHQTYDYWGQGTQVTVSS")
"low polyreactivity"
>>> result("QVQLVESGGGLVQAGGSLRLSCAAARIFVYNAMGWYRQAPGKERELVATITSSGGITYYADSVKGRFTISRDNAKNTVYLQMKSLKPEDTAVYYCNKVRRYYYRTHNVYWGQGTQVTVSS")
"high polyreactivity"
>>> result("QVQLVESGGGLFQAGGSLRLSCAASGFTFARYAMGRSRTAPAKERELVARISWSGGSTYYADSVKGRFTISRDNAKNTVYLLMYSLKTEDTEVYYCAADGWYYRYPRDDYWGQGTQETVSS")
"low polyreactivity"
>>> result("QVQLVESGGGLVQAGGSLRLSCAASASIYFPYTMGWYRQAPGKERELVARISLGGGRTYYADSVKGRFTISRDNAKNTVYLQMNSLKPEDTAVYYCAAVYYYGKWSYGYWIYEYWGQGTQVTVSS")
"high polyreactivity"
>>> result("QVQLLESGGGLVQAGGSLRLSCAASGFIFNHYAMGWYRQAPGKEREFVAAISWSGGSTYYADSVKGRFTISRDNAKNTVYLQMNSLKPEDTAVYYCAASYNGLWHGDYDYWGQGTQVTVSS")
"low polyreactivity"

Ask: For the sequence "QVQLVESGVGLVQAGGSLRLSCAASGFIIYGYVMGWYRQAPGKERELVAAINSSSGRTYYADSVKGRFTISRDNAKNTVYLQMNSLKPEDTAVYYCAAYYYGSYDGTPYDYWGQGTQVTVSS" , what polyreactivity (PSR sort gate) is on record?
Reply: low polyreactivity

Ask: GET /values?readout=polyreactivity (PSR sort gate)&item= "QVQLVESGGRLVQAGGSLRLSCAASGSIFLKYAMRWYRQAPGKERELVAAISSAGRTYYADSVKGRFTISRDNAKKTVYLQMNSLKPEETAVSYCAARYPYDWRHDYWGQGTQVTVSS"
Reply: low polyreactivity

Ask: // lookup polyreactivity (PSR sort gate) for "QHHLVESGGGLVQAGGSLRLSCAASGRPLQGYAMGWYRQAPGKHRELVAAITWSGGSTYYADSVKGRFTISRDKAKNTVYLQMNSLKPEDTAVYYCATDDDSARFDYWGQGTQVTVSS"
Reply: low polyreactivity
